# targetUnderTest: NADPH oxidase 5 (Homo sapiens)
# measurementProtocol: compounds shifting NOX5 Amplex Red fluorescence – cell-based, HEK293-NOX5, NOX inhibitor project, primary screen (AID 1161)
# conditionDetails: HEK293-NOX5, ionomycin, 45 min, higher = more signal
Can you tell me z-score for the items I'm about to list?
API note: the answer field is a bare number with no unit suffix.

Here COc1ccccc1CN1C(=O)c2ccccc2[C@@H](C(=O)NCc2ccccc2)[C@@H]1c1ccc(CO)cc1 was tested on NADPH oxidase 5 (Homo sapiens), and its z-score came to -0.707

Here COC(=O)[C@@]1(Cc2ccc(OC)cc2)[C@H]2c3cc(C(=O)N(C)C)n(Cc4ccc(C(F)(F)F)nc4)c3C[C@H]2CN1C(=O)c1ccccc1 was tested on NADPH oxidase 5 (Homo sapiens), and its z-score came to -1.13

Here O=C1C2C=CC(C(O)C=Cc3ccc([N+](=O)[O-])cc3)N(n3cnnc3)C2C(=O)N1Cc1ccccc1 (stereo not given) was tested on NADPH oxidase 5 (Homo sapiens), and its z-score came to -0.3

Here O=C1OCCC=C[C@H]2OC34C=CCN(c5ccc(Cl)cc5)C(=O)[C@H]3N(CCCO)C(=O)[C@@H]4C12 (stereo not given in full) was tested on NADPH oxidase 5 (Homo sapiens), and its z-score came to 0.215

Here COc1cc2c(cc1OC)CN(C(=O)[C@H]1[C@@H]3C(=O)O[C@@H](c4ccccc4)[C@@H](c4ccccc4)N3[C@@H](c3ccccc3OCCO)[C@]13C(=O)Nc1ccc(C#CCCO)cc13)CC2 was tested on NADPH oxidase 5 (Homo sapiens), and its z-score came to 0.819

Here [N-]=[N+]=NCc1ccccc1[C@H]1OC(c2ccc(OCCCO)cc2)=N[C@@]1(Cc1ccccc1)C(=O)N1CCCCC1 was tested on NADPH oxidase 5 (Homo sapiens), and its z-score came to -1.28

Here C#CCOc1ccc(C[C@@H](C(=O)OC)N(CC#C)[C@@H](/C=C/C2CC2)[C@H](O)Cc2ccccc2)cc1 was tested on NADPH oxidase 5 (Homo sapiens), and its z-score came to -0.732

Here CC(=O)n1cc(C(O)C2C=CC3C(=O)NC(=O)C3N2Nc2ccccn2)c2ccccc21 (stereo not given) was tested on NADPH oxidase 5 (Homo sapiens), and its z-score came to -1.58

Here CC(C)NC(=O)[C@@H]1c2ccccc2C(=O)N(C(C)C)[C@H]1c1ccc(CO)cc1 was tested on NADPH oxidase 5 (Homo sapiens), and its z-score came to 0.964

Here O=C1NC(=O)C2C1C=CC(C(O)C=Cc1ccc([N+](=O)[O-])cc1)N2Nc1ccc(Cl)cc1Cl (stereo not given) was tested on NADPH oxidase 5 (Homo sapiens), and its z-score came to -1.45

----------
Can you tell me composite z-score for the items I'm about to list?
# measurementProtocol: small molecules captured by biotinylated probe aFGF10 – biochemical, small-molecule microarray, fluorescence 635/667, stem cell growth factor project, primary screen (AID 1071);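 further: score merges 667 nm spot intensity and signal to noise from triplicate slides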
# conditionDetails: higher = more signal
API note: the answer field is a bare number with no unit suffix.

GET /value?item= C=CC[C@]1(C(N)=O)N=C(c2ccc(OCCCO)cc2)O[C@H]1c1ccccc1 &field=composite z-score returns -0.0773

GET /value?item= Cc1ccc(C2C3C(=O)CC4C(=O)N(c5ccccc5)C(=O)C4C3CN2S(=O)(=O)c2ccc(C)cc2)cc1 (centres undefined) &field=composite z-score returns 0.59

GET /value?item= C=CC[C@]12N=C(c3ccc(OCCCO)cc3)O[C@H]1c1ccccc1N(CCS(=O)(=O)c1ccccc1)C2=O &field=composite z-score returns -0.0268

GET /value?item= NC(=O)NCC#Cc1ccc2c(c1)[C@]1(C(=O)N2)[C@H](C(=O)O)[C@H]2C(=O)O[C@H](c3ccccc3)[C@H](c3ccccc3)N2[C@@H]1c1ccc(O)cc1 &field=composite z-score returns -0.135

GET /value?item= COc1cc2c(cc1OC)CN(C(=O)[C@H]1[C@@H]3C(=O)O[C@@H](c4ccccc4)[C@@H](c4ccccc4)N3[C@@H](c3ccccc3OCCO)[C@]13C(=O)Nc1ccc(C#CCCO)cc13)CC2 &field=composite z-score returns 0.339

GET /value?item= NC(=O)[C@@H]1[C@H]2C(=O)O[C@H](c3ccccc3)[C@H](c3ccccc3)N2[C@H](c2ccc(O)cc2)[C@@]12C(=O)Nc1ccc(C#CC3=CCCCC3)cc12 &field=composite z-score returns 0.604

GET /value?item= COc1cc2c(cc1O)C(c1cccs1)N(Cc1ccc([N+](=O)[O-])o1)CC2 (centres undefined) &field=composite z-score returns 0.724

GET /value?item= CCCCCCc1nc(-c2ccc(-c3ccc(Cl)c(Cl)c3)o2)c(C)c2c1[Si](C(C)C)(C(C)C)OC2 &field=composite z-score returns -0.475

GET /value?item= COCCCNC(=O)[C@@]1(Cc2ccccc2)N=C(c2ccc(OCCCO)cc2)O[C@H]1c1ccccc1CN=[N+]=[N-] &field=composite z-score returns 0.806

GET /value?item= C=C(CCCC)/C(=C/C[C@@H](OC(C)=O)c1cccc(OCCO)c1)c1cnc2ccccc2c1 &field=composite z-score returns 0.0122

GET /value?item= O=C1[C@@]23C=C(Br)[C@H](C[C@@H]2COC3)[C@]12CO2 &field=composite z-score returns -0.536

GET /value?item= NC(=O)[C@@H]1[C@H]2C(=O)O[C@H](c3ccccc3)[C@H](c3ccccc3)N2[C@H](c2ccc(OCCO)cc2)[C@@]12C(=O)Nc1ccc(C#CC3=CCCCC3)cc12 &field=composite z-score returns 1.18

GET /value?item= C[N+](C)(C)CCCC[C@@H]1NC(=O)[C@@H]2C[C@H](C(=O)NCCCCCN)[C@H](c3ccc(O)cc3)N2C1=O &field=composite z-score returns 0.628

GET /value?item= COC(=O)[C@@]1(Cc2ccc(OC)cc2)[C@H]2c3cc(C(=O)N4CCCC4)n(CCSCCO)c3C[C@H]2CN1C(=O)c1ccccc1 &field=composite z-score returns 0.651

----------
# measurementProtocol: probe aNog binding to arrayed compounds – biochemical, biotinylated probe, 635/667 nm fluorescence, primary screen (AID 1115);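 further: probe is biotinylated aNog protein used at 0.15 µg/mL for 1 h at 4 C; z-score combines 667 nm fluorescence of each spot with its signal to noise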
# conditionDetails: small-molecule microarray, higher = more signal
Cut-off -0.04 on composite z-score, inclusive. At or above means label 1; below means label 0.

Check this compound for composite z-score at or above -0.04: C=CC[C@]12N=C(c3ccc(OCCCO)cc3)O[C@H]1c1ccccc1N(CCS(=O)(=O)c1ccccc1)C2=O
label 0

Check this compound for composite z-score at or above -0.04: NC(=O)N1C(=O)C2C(C1=O)C1C=C(CCCO)C2C(C2CC2)N1Cc1cc2c(cc1Br)OCO2 (stereo not drawn)
label 1

Check this compound for composite z-score at or above -0.04: CCOC(=O)C[C@H]1[C@H](OC(=O)c2ccc(-c3ccccc3)cc2)[C@@H](NC(=O)c2ccccc2)c2cc(OCCCO)ccc2N1C(=O)Cc1ccc(OC)cc1
label 0

Check this compound for composite z-score at or above -0.04: O=C(O)[C@H]1C[C@H]2C(=O)N3CCC[C@H]3C(=O)N2[C@H]1c1ccc(O)cc1
label 0

Check this compound for composite z-score at or above -0.04: O=C1OCCC/C=C\[C@H]2OC34C=CCN(c5ccc6ccccc6c5)C(=O)[C@H]3N(CCCCCO)C(=O)[C@@H]4C12 (stereo partly drawn)
label 0

Check this compound for composite z-score at or above -0.04: CCCCCN1CC=CC23O[C@@H]4C=CCOC(=O)[C@@H]4[C@H]2C(=O)N(C(C)CO)[C@@H]3C1=O (stereo partly drawn)
label 1

Check this compound for composite z-score at or above -0.04: COC(=O)c1c2oc(c1C(=O)OC)C(=O)NC1(CCCCC1)c1cn(nn1)C[C@H](Cc1ccccc1)NC(=O)N[C@H](CO)CC2
label 0

Check this compound for composite z-score at or above -0.04: CC(=O)NCCCC[C@@H]1NC(=O)[C@H]2C[C@@H](C(=O)NCCCCCNC(=O)CS)[C@@H](c3ccc(O)cc3)N2C1=O
label 0

----------
# System: glycogen synthase kinase-3 (GSK3A per assay name; protocol says GSK3B)
# measurementProtocol: compounds binding glycogen synthase kinase-3 – biochemical, small-molecule microarray, 635 nm fluorescence, GSK3A, primary screen (AID 1103); further: the record names both GSK3A and GSK3B
# conditionDetails: fluorescence 635 nm, higher = more signal
# composite z-score binned as band A: < -0.02; band B: ≥ -0.02 and < 0.7; band C: ≥ 0.7

Tag the class for COc1ccc(C(=O)Nc2ccc(CN3C(=O)[C@]4(O[C@H](CC(=O)N5CCC[C@H]5CO)[C@@H]([Si](C)(C)c5ccc(OC)cc5)[C@@H]4C)c4ccccc43)cc2)cc1
band B

Tag the class for O=C(O)[C@H]1C[C@H]2C(=O)N3CCC[C@H]3C(=O)N2[C@H]1c1ccc(O)cc1
band A

Tag the class for C[N+](C)(C)CCCCCCNC(=O)[C@H]1C[C@H]2C(=O)N[C@@H](Cc3ccccc3)C(=O)N2[C@H]1c1cccc(OCCO)c1
band C

Tag the class for O=C1[C@H]2C=C(I)[C@H](C[C@@H]2OCCCCO)[C@@]12CO2
band B

Tag the class for C=C(CCCC)/C(=C/C[C@H](OC(C)=O)c1ccccc1OCCO)c1cnc2ccccc2c1
band B

Tag the class for C=C(CCCC)C(=O)CC[C@@H](OC(C)=O)c1ccc(CO)o1
band B

Tag the class for O=C(O)C1N=C(c2ccc(OCCCO)cc2)N(c2ccccc2)O1 (stereo not given)
band B

Tag the class for COC(=O)c1c(CC[C@@H](CO)NC(=O)N[C@H](Cc2ccccc2)Cn2cc(-c3ccccn3)nn2)oc(C(C)=O)c1C(=O)OC
band B

Tag the class for C=CCN1C(=O)[C@]2(O[C@H](CCO)[C@@H]([Si](C)(C)c3ccc(OC)cc3)[C@@H]2C)c2cc(N(C=O)c3ccccc3)ccc21
band A

Tag the class for CS(=O)(=O)CCOC(=O)C1=CC(CCCO)=CC(c2ccc(CN3CCCC3)cc2)N(Cc2cccc(OC(F)(F)F)c2)C=C1C(=O)OCCS(C)(=O)=O (stereo not given)
band C

Tag the class for [N-]=[N+]=Nc1ccccc1C[C@]1(C(=O)N2CCCCC2)COC(c2ccc(OCCCO)cc2)=N1
band C

Tag the class for [N-]=[N+]=NCc1ccccc1[C@@H]1OC(c2ccc(OCCCO)cc2)=N[C@]1(CCS(=O)(=O)c1ccccc1)C(=O)N1CCCCC1
band C

Tag the class for CC=CC(O)C1C=CC2C(=O)N(C)C(=O)C2N1N(c1ccccc1)c1ccccc1 (stereo not given)
band A

Tag the class for CO[C@H]1O[C@H](CO)[C@@H](OC(=O)Nc2ccc(Br)cc2)[C@@H]2OC(=O)[C@H](Cc3cccc(Br)c3)C/C=C/C[C@@H](Cc3cccc(Br)c3)C(=O)O[C@@H]12
band A

Tag the class for COC(=O)[C@@]1(Cc2ccc(OC)cc2)[C@H]2c3cc(C(=O)N4CCCC4)n(CCCNc4ncc(C(F)(F)F)cc4Cl)c3C[C@H]2CN1C(=O)c1ccccc1
band B
